# Test system: CYP
# Assay Info: CYP inhibition
# Type: in vitro ADME
# Experimental Conditions: isoform 2C19; In vitro CYP inhibition pooled; potency class in words
Observation Type: potency

1. CNCc1cc(-c2cc3c(N[C@@H](c4ccc5c(c4)S(=O)(=O)CCC5)C(C)C)ncnc3[nH]2)co1 [ASAP-0011176] : weak
2. Cn1ncc(-c2cc3c(N[C@@H](c4ccc5c(n4)OCCO5)C(C)(C)C)ncnc3[nH]2)c1C#N [ASAP-0011221] : weak
3. CC(C)[C@H](Nc1ncnc2[nH]ccc12)c1ccc2c(c1)S(=O)(=O)CCC2 [ASAP-0008674] : weak
